B1: CPEB3 Ribozyme (parent)
chain: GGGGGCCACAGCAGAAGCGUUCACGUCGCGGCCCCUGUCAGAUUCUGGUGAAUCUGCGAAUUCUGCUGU

- Variants of: B1
- test details: self-cleavage, relative activity (ratio to wild type); higher = more cleavage; co-transcriptional
Each entry gets NOT MET if its self-cleavage stays under 0.3, and MET if its self-cleavage is 0.3 or above.

For this variant, is measured self-cleavage 0.3 or higher? C7U A23U
MET

Could you verify whether the entry C54A C63A shows self-cleavage of no less than 0.3?
MET

In plain terms: is recorded self-cleavage at least 0.3 for A8C A59G ?
MET

Please indicate if the recorded self-cleavage for G37U U55G meets or exceeds 0.3.
NOT MET

Threshold query (self-cleavage >= 0.3) on C29G A60U
NOT MET

Entry G56U U69A : is its self-cleavage no less than 0.3?
MET

In plain terms: is recorded self-cleavage at least 0.3 for C7U C32A ?
MET

Tell me whether self-cleavage is at least 0.3 here: G41C U43C
MET

Item A23G C57U with self-cleavage of 0.3 or above?
MET

Answer whether self-cleavage of U53A U64G is greater than or equal to 0.3.
MET

Hi, just wondering whether C18A U67G shows self-cleavage of 0.3 or higher.
MET

Is it the case that C32G A40G has self-cleavage reaching or exceeding 0.3?
MET

Kindly determine if self-cleavage recorded for A16G G31U is above or exactly 0.3.
MET

Identify whether the reported self-cleavage of the following variant is 0.3 or greater: C39A C63A
MET

self-cleavage >= 0.3 for C54G U69G ?
MET

Please indicate if the recorded self-cleavage for G47C U53A meets or exceeds 0.3.
MET

# check: self-cleavage of A40G U53A is greater than or equal to 0.3
MET

self-cleavage >= 0.3 for G25U A42U ?
NOT MET

Can A40U A42C be said to have self-cleavage at or above 0.3?
MET

Determine whether measured self-cleavage meets or exceeds 0.3 for G4U G58A
MET

API: above_or_equal(metric=self-cleavage, cutoff=0.3) for item C6G C45A
NOT MET

Assess whether reported self-cleavage for A15G A42C sits at 0.3 or higher.
MET

Has A15G G48A a recorded self-cleavage greater than or equal to 0.3?
MET

Tell me whether self-cleavage is at least 0.3 here: C29G C33G
NOT MET

Record U46G A51G ; criterion: self-cleavage no lower than 0.3. Met?
MET

Threshold query (self-cleavage >= 0.3) on G58A U64A
MET

Does the reported self-cleavage for C22A U53G fall at or above the 0.3 mark?
NOT MET

Would you say C54G C63G shows self-cleavage at minimum 0.3?
MET

Confirm if self-cleavage reported for the variant G37U U38A is 0.3 or above.
MET

Say whether C33U U61G shows self-cleavage of 0.3 or more.
MET

Check this variant for self-cleavage at or above 0.3: G14C G25C
NOT MET

Could you verify whether the entry C22G C39A shows self-cleavage of no less than 0.3?
NOT MET

Hi team, for C7A U46G , is the recorded self-cleavage at or above 0.3?
MET

Can G5C A8C be said to have self-cleavage at or above 0.3?
NOT MET

Evaluate G11C C39A : self-cleavage at minimum 0.3?
NOT MET

Tell me whether self-cleavage is at least 0.3 here: C32U A59C
MET

I'd appreciate it if you could say whether A42G U62C has self-cleavage at least equal to 0.3.
MET

Given the entry U67G G68U , answer whether its self-cleavage meets or surpasses 0.3.
MET

Please check the record G25C A40C and state if its self-cleavage is at or above 0.3.
NOT MET

Can G5C C66U be said to have self-cleavage at or above 0.3?
NOT MET

Form field: self-cleavage at least 0.3? Entry: G50A A51G
MET

Given the entry G1A C24G , answer whether its self-cleavage meets or surpasses 0.3.
NOT MET

Threshold query (self-cleavage >= 0.3) on G11U G14U
NOT MET

Hi, just wondering whether U21A C33G shows self-cleavage of 0.3 or higher.
MET

Answer whether self-cleavage of A15C A16U is greater than or equal to 0.3.
MET

Identify whether the reported self-cleavage of the following variant is 0.3 or greater: U21A G47U
MET
